The values you see were collected from patent US4857537A.

Provide the recorded IC50 for the entries that follow.
tested.on: prolyl endopeptidase (Bos taurus)
Construct: purified from bovine brain; from tissue; host or cells: bovine brain
method.summary: Prolyl endopeptidase inhibitory activity in vitro
Format: biochemical, bovine
condition.notes: in vitro; purified from bovine brain; pH 7.5, 37° C.; substrate N-benzyloxycarbonyl-glycyl-prolyl-p-nitroanilide; 405 nm; read-out: Concentration for 50% inhibition IC50

Illustrative cases are given below, each with its answer.
| molecule | tested.on | IC50 |
| --- | --- | --- |
| COc1ccc(CNC(=O)CCC(=O)N2CSC[C@H]2C=O)cc1 [1 (t)] | prolyl endopeptidase (Bos taurus) | 35 nM |
| O=C[C@@H]1CSCN1C(=O)CCCCCCCCCc1ccccc1 [1 (b)] | prolyl endopeptidase (Bos taurus) | 730 nM |

Give IC50 for each listed item.
1. CC(C)C(CCCCCc1ccccc1)C(=O)N1CSC[C@H]1C=O (stereo partly shown) [1 (c)]
2. O=C[C@@H]1CSCN1C(=O)C1CCCC1C(=O)NCc1ccccc1 (stereo partly shown) [1 (v)]
3. O=C[C@@H]1CSCN1C(=O)CCC(=O)CCCc1ccccc1 [1 (k)]

87 nM
83 nM
16 nM

====

tested.on: prolyl endopeptidase (Bos taurus, UniProt Q9XTA2)
Construct: purified from bovine brain; from tissue; host or cells: bovine brain
Sequence (Q9XTA2 whole entry): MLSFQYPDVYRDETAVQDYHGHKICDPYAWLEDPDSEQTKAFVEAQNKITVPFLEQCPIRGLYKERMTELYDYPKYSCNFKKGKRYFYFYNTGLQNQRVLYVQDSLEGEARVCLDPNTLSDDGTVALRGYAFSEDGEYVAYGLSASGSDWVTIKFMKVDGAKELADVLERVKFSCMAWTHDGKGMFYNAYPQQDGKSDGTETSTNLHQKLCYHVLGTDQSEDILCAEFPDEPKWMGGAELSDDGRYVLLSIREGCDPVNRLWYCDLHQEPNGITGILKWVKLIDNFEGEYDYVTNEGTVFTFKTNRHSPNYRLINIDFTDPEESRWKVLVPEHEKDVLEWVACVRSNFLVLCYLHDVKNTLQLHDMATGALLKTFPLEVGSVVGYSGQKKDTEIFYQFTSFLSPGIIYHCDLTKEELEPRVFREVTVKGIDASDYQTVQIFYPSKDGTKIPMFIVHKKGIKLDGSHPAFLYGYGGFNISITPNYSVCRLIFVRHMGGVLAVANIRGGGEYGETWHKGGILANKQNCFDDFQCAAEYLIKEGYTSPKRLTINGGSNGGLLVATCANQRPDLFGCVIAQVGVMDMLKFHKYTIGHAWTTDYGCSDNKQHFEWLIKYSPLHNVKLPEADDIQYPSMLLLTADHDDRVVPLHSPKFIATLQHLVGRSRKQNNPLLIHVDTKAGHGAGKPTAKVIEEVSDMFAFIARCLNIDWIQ
method.summary: Prolyl endopeptidase inhibitory activity in vitro
Assay type: biochemical, bovine
condition.notes: in vitro; purified from bovine brain; pH 7.5, 37° C.; substrate N-benzyloxycarbonyl-glycyl-prolyl-p-nitroanilide; 405 nm; read-out: Concentration for 50% inhibition IC50
Procedure: Inhibitory activity of prolyl endopeptidase in vitro was measured by the following test system. […] Optical absorption (a1) at 405 nm of the solution, and optical absorption (a2) at 405 nm of the solution after more 30 mins' incubation at 37° C. were measured. Optical absorptions (b1 and b2) of the solutions using DMSO instead of the solution of the compound of the present invention were also measured. […]
Square brackets hold non-standard residues; d marks the D form. Peptide text beside a SMILES is read from it. * marks the point of attachment. ξ: configuration not given here. Hydrocinnamoyl = O=C(CCc1ccccc1)*; Thz = O=C(O)[C@@H]1CSCN1; ξPip = O=C(O)C1CCCCN1
Would you mind telling me the reported IC50 of each entry?
Answers are plain numbers, in nM.

Example cases with answers are listed next.
| compound | recorded.measurement |
| --- | --- |
| O=C[C@@H]1CSCN1C(=O)C1CCCCN1C(=O)CCc1ccccc1 (some centres unmarked) [1 (n)] (Hydrocinnamoyl-[ξPip]-[Thz]-aldehyde) | 20 |
| O=C[C@@H]1CSCN1C(=O)CCC(=O)N(Cc1ccccc1)c1ccccc1 [1 (s)] | 6.8 |
| O=C[C@@H]1CSCN1C(=O)C1CCC[C@H]1C(=O)CCc1ccccc1 (some centres unmarked) | 22 |
| CC(C)C(NC(=O)CCCc1ccccc1)C(=O)N1CSC[C@H]1C=O (some centres unmarked) | 5.7 |

Attention now turns to another entry.
Recall the recorded IC50 for O=C[C@@H]1CSCN1C(=O)CCCOCc1ccccc1 with prolyl endopeptidase (Bos taurus, UniProt Q9XTA2) and state it. 8100
